System: SK-MEL-2 melanoma
test_protocol: NCI-60 one-dose screen, 48 h (100 = growth as untreated, 0 = no growth, -100 = all killed)
condition_details: 10 µM unless noted
Method: Growth inhibition of the SK-MEL-2 human tumor cell line is measured as a screen for anti-cancer activity. Cells are grown in 96 well plates and exposed to the test compound for 48 hours. Compounds are tested at a single concentration, which is 10^-5 M for most compounds. The reported endpoint is percent growth (GI% or GIPRCNT), where numbers from 0 - 100% represent growth inhibition, and numbers from -100% - 0 represent cell death. For example, a value of 40 represents 60% growth inhibition. […]
This is part of a sample that, as a whole, favours compounds with a hit. Of some 83,000 tested, about 20% had one in any assay.
Listed here: items and their measured growth.
Report only the number, with the unit % understood.

{"molecule": "COc1cc2ccc(C(C)=O)cc2cc1OC", "growth [%]": 108}
{"molecule": "O=c1nc(-c2ccccc2)c2cc(-c3ccc(N4CCOCC4)cc3)ccc2[nH]1", "growth [%]": 81.6}
{"molecule": "CC(C)(CCc1ccccn1)C(=O)CCCc1ccccn1", "growth [%]": 98.7}

Q: Could you tell me which growth is on file for COc1ccc2nc3ccccc3c(NCc3ccc(Cl)cc3)c2c1 ?
A: 71.3

Q: # growth lookup, item Oc1ccc(-c2nc3ccccc3s2)cc1CN(Cc1ccccn1)Cc1ccccn1
A: 3.08

Q: Looking for the measured growth of O=C(/C=C/c1cn(-c2ccccc2)nc1-c1ccccc1)OCc1cn(-c2cccc([N+](=O)[O-])c2)nn1 , can you help?
A: 87.8

Q: Which growth is listed for CCCCCCCCN=C(NCCCCCCCC)SCc1cccc2ccccc12 ?
A: -89.8

Q: What measured growth goes with CCN1C(=O)C(C)C=C(C)C=C1C (stereo not given) ?
A: 102

Q: Would you mind telling me what growth value was observed for O=C(/C=C/c1ccccc1Br)c1cccc(OCCCCOc2cccc(C(=O)/C=C/c3ccccc3Br)c2)c1 ?
A: 104

Q: Param item = O=C(Nc1cccc(C2=NCCN2)c1)c1ccc(N=Nc2ccc(C(=O)Nc3cccc(C4=NCCN4)c3)cc2)cc1 ; retrieve measured growth.
A: 56.6
